Taken from ChEMBL document CHEMBL4033793.

# target-desc: NAD-dependent protein deacylase sirtuin-5, mitochondrial (Homo sapiens, UniProt Q9NXA8)
# Sequence (Q9NXA8 whole entry): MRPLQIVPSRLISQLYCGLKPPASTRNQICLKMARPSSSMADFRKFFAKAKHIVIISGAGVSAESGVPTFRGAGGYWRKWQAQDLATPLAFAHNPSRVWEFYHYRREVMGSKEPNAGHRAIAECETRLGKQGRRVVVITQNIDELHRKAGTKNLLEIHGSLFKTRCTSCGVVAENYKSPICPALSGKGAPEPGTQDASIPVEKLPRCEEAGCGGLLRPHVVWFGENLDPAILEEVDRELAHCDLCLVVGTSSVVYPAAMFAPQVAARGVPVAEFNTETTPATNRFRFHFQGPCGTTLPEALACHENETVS
# test-description: Inhibition of human recombinant N-terminal Strep2-tagged SIRT5 expressed in Escherichia coli BL21 (DE3) using Abz-GVLK(glutaryl)AY(NO2)GV-NH2 as substrate in presence of NAD+ by fluorescence assay
pIC50: −log10 of the molar value. Residues, ends and D or L forms follow the SMILES beside them. *: point of attachment. X27 = O=C(O)[C@H](CC(=O)*)SCc1ccc([N+](=O)[O-])cc1; X72 = O=C(O)[C@@H](CC(=O)*)SCc1cccc2ccccc12; X74 = O=C(O)[C@@H](CC(=O)*)SCc1ccc(Cl)cc1Cl; X29 = COc1ccc(S[C@@H](CC(=O)*)C(=O)O)cc1OC; X3 = O=C(O)[C@H](CC(=O)*)Sc1ccc(Cl)c(Cl)c1; X58 = O=C(O)[C@@H](CC(=O)*)Sc1cccc(Cl)c1Cl; X10 = Cc1noc(C)c1CCS[C@H](CC(=O)*)C(=O)O; X14 = O=C(O)[C@H](CC(=O)*)SCc1ccc(Cl)cc1; X34 = O=C(O)[C@@H](CC(=O)*)Sc1ccccc1Cl; X60 = O=C(O)[C@@H](CC(=O)*)SCc1ccccc1; X44 = CC(CC(=O)*)Sc1ccc2ccccc2c1; X5 = O=C(O)C(CC(=O)*)SCCc1ccccn1; Bz = O=C(c1ccccc1)*
Use 5 as the dividing line for pIC50, with the line itself on the Met side and lower values as Not met.

[[record]]
compound = "CC(C)C[C@H](NC(=O)[C@@H](NC(=O)CNC(=O)c1ccccc1)C(C)C)C(=O)N[C@@H](CCCCNC(=O)CC(SCCc1ccccn1)C(=O)O)C(=O)N[C@@H](CCC(=O)O)C(=O)N[C@@H](Cc1ccc(O)cc1)C(=O)NCC(=O)N[C@H](C(N)=O)C(C)C (stereo not given in full) (Bz-GVLK(X5)EYGV-NH2)"
answer_label = "Met"

[[record]]
compound = "CC(C)C[C@H](NC(=O)[C@@H](NC(=O)CNC(=O)c1ccccc1)C(C)C)C(=O)N[C@@H](CCCCNC(=O)C[C@H](SCc1ccc([N+](=O)[O-])cc1)C(=O)O)C(=O)N[C@@H](CCC(=O)O)C(=O)N[C@@H](Cc1ccc(O)cc1)C(=O)NCC(=O)N[C@H](C(N)=O)C(C)C (Bz-GVLK(X27)EYGV-NH2)"
answer_label = "Met"

[[record]]
compound = "CC(C)C[C@H](NC(=O)[C@@H](NC(=O)CNC(=O)c1ccccc1)C(C)C)C(=O)N[C@@H](CCCCNC(=O)C[C@H](Sc1ccc(Cl)c(Cl)c1)C(=O)O)C(=O)N[C@@H](CCC(=O)O)C(=O)N[C@@H](Cc1ccc(O)cc1)C(=O)NCC(=O)N[C@H](C(N)=O)C(C)C (Bz-GVLK(X3)EYGV-NH2)"
answer_label = "Met"

[[record]]
compound = "CC(C)C[C@H](NC(=O)[C@@H](NC(=O)CNC(=O)c1ccccc1)C(C)C)C(=O)N[C@@H](CCCCNC(=O)C[C@@H](Sc1ccccc1Cl)C(=O)O)C(=O)N[C@@H](CCC(=O)O)C(=O)N[C@@H](Cc1ccc(O)cc1)C(=O)NCC(=O)N[C@H](C(N)=O)C(C)C (Bz-GVLK(X34)EYGV-NH2)"
answer_label = "Met"

[[record]]
compound = "Cc1noc(C)c1CCS[C@H](CC(=O)NCCCC[C@H](NC(=O)[C@H](CC(C)C)NC(=O)[C@@H](NC(=O)CNC(=O)c1ccccc1)C(C)C)C(=O)N[C@@H](CCC(=O)O)C(=O)N[C@@H](Cc1ccc(O)cc1)C(=O)NCC(=O)N[C@H](C(N)=O)C(C)C)C(=O)O (Bz-GVLK(X10)EYGV-NH2)"
answer_label = "Not met"

[[record]]
compound = "COc1ccc(S[C@@H](CC(=O)NCCCC[C@H](NC(=O)[C@H](CC(C)C)NC(=O)[C@@H](NC(=O)CNC(=O)c2ccccc2)C(C)C)C(=O)N[C@@H](CCC(=O)O)C(=O)N[C@@H](Cc2ccc(O)cc2)C(=O)NCC(=O)N[C@H](C(N)=O)C(C)C)C(=O)O)cc1OC (Bz-GVLK(X29)EYGV-NH2)"
answer_label = "Met"

[[record]]
compound = "CC(C)C[C@H](NC(=O)[C@@H](NC(=O)CNC(=O)c1ccccc1)C(C)C)C(=O)N[C@@H](CCCCNC(=O)C[C@@H](SCc1ccccc1)C(=O)O)C(=O)N[C@@H](CCC(=O)O)C(=O)N[C@@H](Cc1ccc(O)cc1)C(=O)NCC(=O)N[C@H](C(N)=O)C(C)C (Bz-GVLK(X60)EYGV-NH2)"
answer_label = "Met"

[[record]]
compound = "CC(C)C[C@H](NC(=O)[C@@H](NC(=O)CNC(=O)c1ccccc1)C(C)C)C(=O)N[C@@H](CCCCNC(=O)C[C@H](SCc1ccc(Cl)cc1)C(=O)O)C(=O)N[C@@H](CCC(=O)O)C(=O)N[C@@H](Cc1ccc(O)cc1)C(=O)NCC(=O)N[C@H](C(N)=O)C(C)C (Bz-GVLK(X14)EYGV-NH2)"
answer_label = "Met"

[[record]]
compound = "CC(C)C[C@H](NC(=O)[C@@H](NC(=O)CNC(=O)c1ccccc1)C(C)C)C(=O)N[C@@H](CCCCNC(=O)CC(C)Sc1ccc2ccccc2c1)C(=O)N[C@@H](CCC(=O)O)C(=O)N[C@@H](Cc1ccc(O)cc1)C(=O)NCC(=O)N[C@H](C(N)=O)C(C)C (stereo not given in full) (Bz-GVLK(X44)EYGV-NH2)"
answer_label = "Not met"

[[record]]
compound = "CC(C)C[C@H](NC(=O)[C@@H](NC(=O)CNC(=O)c1ccccc1)C(C)C)C(=O)N[C@@H](CCCCNC(=O)C[C@@H](SCc1ccc(Cl)cc1Cl)C(=O)O)C(=O)N[C@@H](CCC(=O)O)C(=O)N[C@@H](Cc1ccc(O)cc1)C(=O)NCC(=O)N[C@H](C(N)=O)C(C)C (Bz-GVLK(X74)EYGV-NH2)"
answer_label = "Met"

[[record]]
compound = "CCCCNC(=O)C[C@H](Sc1ccc2ccccc2c1)C(=O)O"
answer_label = "Not met"

[[record]]
compound = "CC(C)C[C@H](NC(=O)[C@@H](NC(=O)CNC(=O)c1ccccc1)C(C)C)C(=O)N[C@@H](CCCCNC(=O)C[C@@H](SCc1cccc2ccccc12)C(=O)O)C(=O)N[C@@H](CCC(=O)O)C(=O)N[C@@H](Cc1ccc(O)cc1)C(=O)NCC(=O)N[C@H](C(N)=O)C(C)C (Bz-GVLK(X72)EYGV-NH2)"
answer_label = "Met"

[[record]]
compound = "CC(C)C[C@H](NC(=O)[C@@H](NC(=O)CNC(=O)c1ccccc1)C(C)C)C(=O)N[C@@H](CCCCNC(=O)C[C@@H](Sc1cccc(Cl)c1Cl)C(=O)O)C(=O)N[C@@H](CCC(=O)O)C(=O)N[C@@H](Cc1ccc(O)cc1)C(=O)NCC(=O)N[C@H](C(N)=O)C(C)C (Bz-GVLK(X58)EYGV-NH2)"
answer_label = "Met"

[[record]]
compound = "O=C(C[C@H](Sc1ccc2ccccc2c1)C(=O)O)NCCCc1ccccc1"
answer_label = "Not met"

